Every entry's value here was drawn from ChEMBL document CHEMBL1759951.

Each entry below carries its recorded viability at 24 h, 20 µM.
procedure_summary: Cytotoxicity against rat C6 cells assessed as viable cells at 20 uM after 24 hrs by MTT assay
Type: cell-based
assay_setup: read-out: Activity
// note: answer is a bare numeric in %

Data request, read-out viability at 24 h, 20 µM, for COc1cc(CC[C@@H](O)C[C@@H](O)CCc2ccc(O)c(OC)c2)ccc1O 102

Okay, and COc1cc(O)cc(CCc2ccccc2O)c1 [BATATASIN IV] ? 95

----------
procedure_summary: Cytotoxicity against rat C6 cells assessed as viable cells at 20 uM after 24 hrs by MTT assay
Type: cell-based
assay_setup: read-out: Activity
measured_metric: viability at 24 h, 20 µM (%)
Field: numeric (%). Do not append units.

Use these answered entries as a reference point.
{"columns": ["molecule", "measured_metric", "assay_value"],
 "data": [
  ["CCCCO[C@]1(CO)O[C@H](CO)[C@@H](O)[C@@H]1O", "viability at 24 h, 20 µM", 102],
  ["CO[C@]1(CC[C@@H](C)CO[C@@H]2O[C@H](CO)[C@@H](O)[C@H](O)[C@H]2O)O[C@H]2C[C@H]3[C@@H]4CC=C5C[C@@H](O[C@@H]6O[C@H](CO)[C@@H](O[C@@H]7OC[C@H](O)[C@H](O)[C@H]7O)[C@H](O)[C@H]6O[C@@H]6O[C@@H](C)[C@H](O)[C@@H](O)[C@H]6O)CC[C@]5(C)[C@H]4CC[C@]3(C)[C@H]2[C@@H]1C [COREAJAPONINS B]", "viability at 24 h, 20 µM", 98],
  ["Oc1cc(O)cc(CCc2ccccc2)c1 [DIHYDROPINOSYLVIN]", "viability at 24 h, 20 µM", 105],
  ["NC(=O)NC1NC(=O)NC1=O (stereo not given) [ALLANTOIN]", "viability at 24 h, 20 µM", 100],
  ["CC(=O)CCc1ccc(O)cc1 [RASPBERRYKETONE]", "viability at 24 h, 20 µM", 101],
  ["CC1=CC(=O)CC(C)(C)[C@@]1(O)/C=C/[C@@H](C)O [BLUMENOL A]", "viability at 24 h, 20 µM", 101],
  ["CC[C@H](CC[C@@H](C)[C@H]1CC[C@H]2[C@@H]3CC=C4C[C@@H](O)CC[C@]4(C)[C@H]3CC[C@]12C)C(C)C [BETA-SITOSTEROL]", "viability at 24 h, 20 µM", 104],
  ["C[C@H](CC[C@@]1(O)O[C@H]2C[C@H]3[C@@H]4CC=C5C[C@@H](O[C@@H]6O[C@H](CO)[C@@H](O[C@@H]7OC[C@H](O)[C@H](O)[C@H]7O)[C@H](O)[C@H]6O[C@@H]6O[C@@H](C)[C@H](O)[C@@H](O)[C@H]6O)CC[C@]5(C)[C@H]4CC[C@]3(C)[C@H]2[C@@H]1C)CO[C@@H]1O[C@H](CO)[C@@H](O)[C@H](O)[C@H]1O [COREAJAPONINS A]", "viability at 24 h, 20 µM", 106]
]}

Requested read-out: viability at 24 h, 20 µM. Entry: COCC(=O)c1ccc(O)cc1 99.8

Cool, now COc1cc(O)cc(CCc2ccccc2OC)c1 [STILBOSTEMINN] 104
